Experiment Summary: Determination of kinetic solubility (pH 7.4)
Assay type: physicochemical
Applied Conditions: phosphate buffer, pH 7.4, aqueous buffer, kinetic from dmso stock, 50 mM phosphate buffer pH 7.4, read-out: Ksol, pH 7.4
Test Readout: solubility kinetic at 2 h
Number first, unit second.

// below: answered compounds
N#CC[C@H]1CN(c2nc(OC[C@@]34CCCN3C[C@H](F)C4)nc3c(F)c(-c4cccc(F)c4C(F)(F)F)ncc23)CCN1C(=O)/C=C/CN1[C@@H]2CC[C@H]1COC2 : 112 µg/mL
N#CC[C@H]1CN(c2nc(OC[C@@]34CCCN3C[C@H](F)C4)nc3c(F)c(-c4cccc5ccc(F)c(F)c45)ncc23)CCN1C(=O)/C=C/CN1C[C@H]2COC[C@H]2C1 : 118 µg/mL
Cc1cc(/C=C/C(=O)N2CCN(c3nc(OC[C@@]45CCCN4C[C@H](F)C5)nc4c(F)c(-c5cccc(Cl)c5C5CC5)ncc34)C[C@@H]2CC#N)nc(C)n1 : 12 µg/mL
N#CC[C@H]1CN(c2nc(OC[C@@]34CCCN3C[C@H](O)C4)nc3c2CCN(c2cccc4cccc(Cl)c24)C3)CCN1C(=O)/C=C/CN1CCOCC1 : 124 µg/mL

Name the recorded solubility kinetic at 2 h of the compound listed here: `N#CC[C@H]1CN(c2nc(OC[C@@]34CCCN3C[C@H](F)C4)nc3c(F)c(-c4cccc5cccc(Cl)c45)ncc23)CCN1C(=O)/C=C/c1nc(C(F)F)no1`
0.28 µg/mL

* * *

I'd appreciate it if you could supply log10 of solubility kinetic at 2 h values for the items below.
Experiment Summary: Determination of kinetic solubility (pH 7.4)
Assay type: physicochemical
Applied Conditions: phosphate buffer, pH 7.4, aqueous buffer, kinetic from dmso stock, 50 mM phosphate buffer pH 7.4, read-out: Ksol, pH 7.4
// units: µg/mL (pre-log); metric: solubility kinetic at 2 h; scale: log10

Worked set:
C[C@@H]1CN(C/C=C/C(=O)N2CCN(c3nc(OC[C@@]45CCCN4C[C@H](F)C5)nc4c(F)c(-c5cccc6cccc(Cl)c56)ncc34)C[C@@H]2CC#N)C[C@H](C)O1 [Compound 186] : 1.95
C[C@@H]1CN(C/C=C/C(=O)N2CCN(c3nc(OC[C@@]45CCCN4C[C@H](F)C5)nc4c(F)c(-c5cccc6ccc(F)c(F)c56)ncc34)C[C@@H]2CC#N)C[C@H](C)O1 [Compound 239] : 1.97
N#CC[C@H]1CN(c2nc(OC[C@@]34CCCN3C[C@H](F)C4)nc3c(F)c(-c4cccc5cccc(F)c45)ncc23)CCN1C(=O)/C=C/CN1CCSCC1 [Compound 232] : 1.54
CC(C)c1noc(/C=C/C(=O)N2CCN(c3nc(OC[C@@]45CCCN4C[C@H](F)C5)nc4c3CCN(c3cccc5ccc(F)c(Cl)c35)C4)C[C@@H]2CC#N)n1 [Compound 128] : -2.00

Field: log10 of solubility kinetic at 2 h. Fill in for each record below.
1. N#CC[C@H]1CN(c2nc(OC[C@@]34CCCN3C[C@H](F)C4)nc3c(F)c(-c4cccc5ccc(F)c(F)c45)ncc23)CCN1C(=O)/C=C/CN1CC2CCC(C1)O2 [Compound 249]
2. Cc1nccc(/C=C/C(=O)N2CCN(c3nc(OC[C@@]45CCCN4C[C@H](F)C5)nc4c(F)c(-c5cccc6ccc(F)c(Cl)c56)ncc34)C[C@@H]2CC#N)n1 [Compound 147]
3. N#CC[C@H]1CN(c2nc(OCC34CCCN3CCC4)nc3c2CCN(c2cccc4cccc(Cl)c24)C3)CCN1C(=O)/C=C/CN1CCN(C2COC2)CC1 [Compound 317]
4. N#CC[C@H]1CN(c2nc(OCC34CCCN3CCC4)nc3c(F)c(-c4cccc5ccc(F)c(Cl)c45)ncc23)CCN1C(=O)/C=C/CN1C[C@@H]2C[C@H]1CO2 [Compound 182]
5. N#CC[C@H]1CN(c2nc(OC[C@@]34CCCN3C[C@H](F)C4)nc3c(F)c(-c4cccc5ccc(F)c(Cl)c45)ncc23)CCN1C(=O)/C=C/CN1CCCOCC1 [Example 70]
6. N#CC[C@H]1CN(c2nc(OC[C@@]34CCCN3C[C@H](F)C4)nc3c(F)c(-c4cccc5cccc(F)c45)ncc23)CCN1C(=O)/C=C/CN1CC2CC(C1)O2 [Compound 237]
7. N#CC[C@H]1CN(c2nc(OC[C@@]34CCCN3C[C@H](F)C4)nc3c(F)c(-c4cccc5cccc(Cl)c45)ncc23)CCN1C(=O)/C=C/CN1[C@@H]2CC[C@H]1COC2 [Example 87]

[1.85, 0.69, 2.06, 2.08, 2.09, 1.83, 1.84]

* * *

Experiment Summary: Determination of kinetic solubility (pH 7.4)
Assay type: physicochemical
Applied Conditions: phosphate buffer, pH 7.4, aqueous buffer, kinetic from dmso stock, 50 mM phosphate buffer pH 7.4, read-out: Ksol, pH 7.4
Answer each item with its documented solubility kinetic at 2 h.
Numbers only, in µg/mL.

Answered examples (5):
N#CC[C@H]1CN(c2nc(OC[C@@]34CCCN3C[C@H](F)C4)nc3c2CCN(c2cccc4cccc(Cl)c24)C3)CCN1C(=O)/C=C/c1nc([C@H]2C[C@@H]2F)no1 [Compound 37] : 0.01
Cc1nccc(/C=C/C(=O)N2CCN(c3nc(OC[C@@]45CCCN4C[C@H](F)C5)nc4c(F)c(-c5cccc6cccc(Cl)c56)ncc34)C[C@@H]2CC#N)n1 [Compound 140] : 1.86
N#CC[C@H]1CN(c2nc(OCC34CCCN3CCC4)nc3c2CCN(c2cccc4cccc(Cl)c24)C3)CCN1C(=O)/C=C/CN1CC2C(C1)C2(F)F (some centres unmarked) [Compound 193] : 97.3
Cc1nccc(/C=C/C(=O)N2CCN(c3nc(OC[C@@]45CCCN4C[C@H](F)C5)nc4c(F)c(-c5cccc6ccc(F)c(C)c56)ncc34)C[C@@H]2CC#N)n1 [Compound 254] : 4.99
CC(C)c1noc(/C=C/C(=O)N2CCN(c3nc(OCC45CCCN4CCC5)nc4c3CCN(c3cccc5ccc(F)c(Cl)c35)C4)C[C@@H]2CC#N)n1 [Compound 126] : 0.01

Value sought for every listed compound: solubility kinetic at 2 h.
1. N#CC[C@H]1CN(c2nc(OCC34CCCN3CCC4)nc3c2CCN(c2cccc4cccc(Cl)c24)C3)CCN1C(=O)/C=C/CN1CCCOCC1 [Compound 163]
2. CC(C)c1nccc(/C=C/C(=O)N2CCN(c3nc(OC[C@@]45CCCN4C[C@H](F)C5)nc4c(F)c(-c5cccc6cccc(Cl)c56)ncc34)C[C@@H]2CC#N)n1 [Compound 151]
3. CC(C)(C)c1noc(/C=C/C(=O)N2CCN(c3nc(OC[C@@]45CCCN4C[C@H](F)C5)nc4c3CCN(c3cccc5cccc(Cl)c35)C4)C[C@@H]2CC#N)n1 [Compound 31]
4. Cc1nsc(/C=C/C(=O)N2CCN(c3nc(OCC45CCCN4CCC5)nc4c(F)c(-c5cccc6cccc(Cl)c56)ncc34)C[C@@H]2CC#N)n1 [Compound 143]
5. Cc1cc(N)nc(C2Cc3nc(OC[C@@]45CCCN4C[C@H](F)C5)nc(N4CCN(C(=O)/C=C/CN5CCOCC5)[C@@H](CC#N)C4)c3CC2C)c1C(F)(F)F (some centres unmarked) [Example 67]

1: 130; 2: 0.41; 3: 0.01; 4: 87.8; 5: 78.2

Note solubility kinetic at 2 h for the compound shown: Cc1cc(N)nc(C2Cc3nc(OC[C@@]45CCCN4C[C@H](F)C5)nc(N4CCN(C(=O)/C=C/CN(C)C)[C@@H](CC#N)C4)c3CC2C)c1C(F)(F)F (some centres unmarked) [Compound 315]
139

* * *

Measured Target: KRAS G12C (GMPPNP-loaded) and PI3Ka (Ras-binding domain) interaction (Homo sapiens (Human), UniProt P01116, C118S/C51S/C80L/G12C)
Sequence (P01116 other isoform, or with tags, fused parts or gaps G12C/C51S/C80L/C118S): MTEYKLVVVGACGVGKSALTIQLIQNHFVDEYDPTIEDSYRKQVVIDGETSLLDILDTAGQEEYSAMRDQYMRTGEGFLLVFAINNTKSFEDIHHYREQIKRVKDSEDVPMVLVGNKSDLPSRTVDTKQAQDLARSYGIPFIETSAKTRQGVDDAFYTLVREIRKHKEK
Experiment Summary: Inhibition of KRAS G12C and PI3Ka binding (AlphaScreen)
Applied Conditions: KRAS G12C loaded with GMPPNP, PI3Ka RBD, 2 hours preincubation; read-out: PI3K RBD K-Ras IC50
pIC50: −log10 of the molar value.
Consider the following compounds; for each one, report its pIC50.

Examples with answers:
Cc1nccc(/C=C/C(=O)N2CCN(c3nc(OCC45CCCN4CCC5)nc4c3CCN(c3cccc5cccc(Cl)c35)C4)C[C@@H]2CC#N)n1 [Compound 202] : > 8.00
Cc1cc(N)nc([C@@H]2Cc3nc(OC[C@@]45CCCN4C[C@H](F)C5)nc(N4CCN(C(=O)/C=C/CN(C)C)[C@@H](CC#N)C4)c3C[C@H]2C)c1C(F)(F)F [Compound 322] : > 8.00
Cc1nccc(/C=C/C(=O)N2CCN(c3nc(OC[C@@]45CCCN4C[C@H](F)C5)nc4c(F)c(-c5cccc6ccccc56)ncc34)C[C@@H]2CC#N)n1 [Compound 215] : > 8.00
N#CC[C@H]1CN(c2nc(OC[C@@]34CCCN3C[C@H](F)C4)nc3c(F)c(-c4cccc(Cl)c4C4CC4)ncc23)CCN1C(=O)/C=C/CN1CC2CC(C1)O2 [Compound 244] : 7.00 to 8.00

Annotate the compound CC(C)c1noc(/C=C/C(=O)N2CCN(c3nc(OC[C@@]45CCCN4C[C@H](F)C5)nc4c3CCN(c3cccc5ccc(F)c(Cl)c35)C4)C[C@@H]2CC#N)n1 [Compound 128] with its measured pIC50.
7.00 to 8.00
